The measurements presented in this section are drawn from patent US20230212143A9.

Biological target: PRMT5:MEP50 (Homo sapiens, UniProt O14744)
Construct: made in house; host or cells: Sf9 insect cells (Bac-to-Bac baculovirus system)
Sequence (O14744 whole entry): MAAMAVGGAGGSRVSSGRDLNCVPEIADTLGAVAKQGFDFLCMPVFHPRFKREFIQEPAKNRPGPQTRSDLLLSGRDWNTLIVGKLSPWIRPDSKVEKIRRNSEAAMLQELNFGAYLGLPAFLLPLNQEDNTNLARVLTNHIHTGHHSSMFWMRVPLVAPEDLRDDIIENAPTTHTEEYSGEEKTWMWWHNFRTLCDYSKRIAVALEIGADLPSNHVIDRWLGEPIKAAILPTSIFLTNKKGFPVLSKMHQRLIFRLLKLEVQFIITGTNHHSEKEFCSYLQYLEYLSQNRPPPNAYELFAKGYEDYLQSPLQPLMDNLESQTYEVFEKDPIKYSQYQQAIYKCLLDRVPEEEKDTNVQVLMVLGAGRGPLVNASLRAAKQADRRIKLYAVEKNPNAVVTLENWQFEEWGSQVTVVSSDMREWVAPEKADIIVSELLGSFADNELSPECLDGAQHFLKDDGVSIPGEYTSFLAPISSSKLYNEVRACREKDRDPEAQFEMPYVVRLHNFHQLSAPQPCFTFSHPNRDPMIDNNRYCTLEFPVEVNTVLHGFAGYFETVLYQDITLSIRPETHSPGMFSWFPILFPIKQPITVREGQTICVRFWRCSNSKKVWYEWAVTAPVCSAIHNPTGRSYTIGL
Sequence (Q9BQA1 whole entry partner): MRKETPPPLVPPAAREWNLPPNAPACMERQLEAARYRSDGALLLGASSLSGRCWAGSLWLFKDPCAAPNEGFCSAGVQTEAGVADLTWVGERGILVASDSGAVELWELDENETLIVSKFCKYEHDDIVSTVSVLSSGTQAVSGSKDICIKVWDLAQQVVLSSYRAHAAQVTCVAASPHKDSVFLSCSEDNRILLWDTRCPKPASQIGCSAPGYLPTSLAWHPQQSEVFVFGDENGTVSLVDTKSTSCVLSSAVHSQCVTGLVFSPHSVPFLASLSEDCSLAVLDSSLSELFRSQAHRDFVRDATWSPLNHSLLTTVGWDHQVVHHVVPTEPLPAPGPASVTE
Assay: MTase-Glo enzymatic inhibition assay
Format: biochemical
Details: 100 nM PRMT5:MEP50, 10 μM SAM, 2 μM histone H4 (1-21); 11-series
pIC50: −log10 of the molar value.
result type: pIC50

Nc1ccc2ccc(CNC(=O)c3ccc4c(c3)c3c(n4CCO)CCCC3)cc2n1 [Compound 11-2F]
6.05
CCn1c2c(c3cc(C(=O)NCc4ccc5ccc(N)nc5c4)ccc31)CCCC2 [Compound 11-1F]
5.87

----------
Molecular target: PRMT5:MEP50 (Homo sapiens, UniProt O14744)
Construct: made in house; host or cells: Sf9 insect cells (Bac-to-Bac baculovirus system)
Experiment: MTase-Glo enzymatic inhibition assay
Type: biochemical
Details: 100 nM PRMT5:MEP50, 10 μM SAM, 2 μM histone H4 (1-21); 15-series
pIC50: −log10 of the molar value.
result type: pIC50

CC(=O)N1CCC(Nc2cc(C(=O)NCc3ccc4c(N)nc(N)nc4c3)ncn2)CC1
6.82
CC(=O)N1CCC(Nc2cc(C(=O)NCc3ccc4ccc(N)nc4c3)ncn2)CC1
6.66
